Ref: the supplement of paper PMC10724198

Recorded measurements of protein stability index, one per entry
- Test system: Saccharomyces cerevisiae
- Assay Name: protein stability index of tFT-peptide fusion in wild type (PSI (0-1 scale)); higher = more stable (slower turnover)
- Assay Setup: genetic background: wild type
Lab note: jot the number down without any unit.

Some entries whose results are on file:
>>> quantitative_result("AITSPMCPLLLR")
0.491
>>> quantitative_result("PDKRNHHIKLLN")
0.111
>>> quantitative_result("CTSCGYKFITNN")
0.325

Would you kindly look at the next entry?
Give Saccharomyces cerevisiae protein stability index for KKHKKGQKQKIL
0.222

###

- Test system: Saccharomyces cerevisiae
- Assay Name: protein stability index of tFT-peptide fusion (C-terminal peptide) (PSI (0-1 scale)); higher = more stable (slower turnover)
- Assay Setup: genetic background: wild type; temperature: 30 C
Property Measured: protein stability index
Please reply with the value in numeric form only.

Give recorded protein stability index with Saccharomyces cerevisiae for the following sequence: VTGSGVGGSPEC
0.683

Form entry - test system: Saccharomyces cerevisiae; read-out: protein stability index; sequence: RPPSNRPPPPSS
0.698

Request body: readout protein stability index, system Saccharomyces cerevisiae, query RDGYMVKVYGVK . Return the value.
0.707

Checklist item: protein stability index tested on Saccharomyces cerevisiae, entry RVLRAELCLHEI , value?
0.687

Form: Entry = PRPLLLLPPATP | System = Saccharomyces cerevisiae | protein stability index = ____
0.703

Entry CRVVRPSLEPQV , system Saccharomyces cerevisiae: what protein stability index was measured?
0.697

Can you look up protein stability index on Saccharomyces cerevisiae for GGCSLRWARCRW ?
0.686

Can you look up protein stability index on Saccharomyces cerevisiae for WGGGGGLCGMWA ?
0.679

API: value(readout= protein stability index, system= Saccharomyces cerevisiae, query= PSDSRSTPPTPD )
0.698

GET /values?readout=protein stability index&system=Saccharomyces cerevisiae&item= RRRAGSKEKQRK
0.703

Find the measured protein stability index: item GGRGLGVVGEVL , target or system Saccharomyces cerevisiae.
0.72

Which measured protein stability index belongs to SPPPLPLPPPAP , tested on Saccharomyces cerevisiae?
0.695

###

- System: Saccharomyces cerevisiae
- Assay Name: protein stability index of tFT-peptide fusion (C-terminal peptide) (PSI (0-1 scale)); higher = more stable (slower turnover)
- Assay Setup: genetic background: wild type; temperature: 30 C
The following sequences are shown together with reported protein stability index values.
API doc: respond with a numeric literal and nothing else, no unit.

>>> quantitative_result("RKCHCPGGGRRI")
0.717

Consider the sequence shown here: PHSSFSLAPPIP What is its recorded protein stability index?
0.696

GET /values?readout=protein stability index&item= WWGFGGVWRCGL
0.687

Quick one: protein stability index of KEQGEGKEKTDK ?
0.682

###

- Test system: Saccharomyces cerevisiae
- Assay Name: protein stability index of tFT-peptide fusion (C-terminal peptide) (PSI (0-1 scale)); higher = more stable (slower turnover)
- Assay Setup: genetic background: wild type; temperature: 30 C
Property Measured: protein stability index
Note: the reply should be a number with no unit written.

Previously resolved entries follow.
>>> quantitative_result("NAPSAIQKNKKC")
0.433
>>> quantitative_result("RSRGARMPTTPT")
0.684

Reported protein stability index for LIPLSLPSCPLS : what is it?
0.69

###

- Test system: Saccharomyces cerevisiae
- Assay Name: protein stability index of tFT-peptide fusion in deletion strain of DOA10 (PSI (0-1 scale)); higher = more stable (slower turnover)
Property Measured: protein stability index

Consider the reported protein stability index for these sequences:
>>> result("RSLRVLLPLTFR")
0.671
>>> result("RSLRVLLPLEFR")
0.679

Continue with the sequence presented below.
Please tell me: protein stability index of GLLMCSVGCWFR , system Saccharomyces cerevisiae?
0.409
